Assay: protein stability index of a GFP-peptide fusion (yeast GPS) (PSI 1-4); higher = more stable; sorted into four equal gates, so the index is relative within each strain
Settings: doa10∆
Listing of entries alongside the reported protein stability index.
Give the figure by itself; no unit, no explanation.

sequence: KHWGGGILGNKAQAKMD [RPL8A]
assay.readout: protein stability index
reported.value: 3.39

sequence: HNMLNLLIHRKGLTYLH [PRP8]
assay.readout: protein stability index
reported.value: 1.33

sequence: KCGSVTVRLIPAPRGSG [RPS2]
assay.readout: protein stability index
reported.value: 1.35

Ask | Note down protein stability index recorded for TGEAQVDNSPTTESNSR [YLR335W/NUP2]
Reply | 2.98

---

Assay: protein stability index of a GFP-peptide fusion (yeast GPS) (PSI 1-4); higher = more stable; sorted into four equal gates, so the index is relative within each strain
Conditions: pdr5∆
assay.readout: protein stability index
Give the figure by itself; no unit, no explanation.

sequence: ISNKDVIFKIRDRTSGQ [SRB4]
reported.value: 3.02
//
sequence: NALHTERLHELKKLQSD [SMC1]
reported.value: 3.38

Let us examine a further case.
Ask | Note down protein stability index recorded for ESYKPSVQLPDMAKLKK [SWI3]
Reply | 2.9

---

Assay: protein stability index of a GFP-peptide fusion (yeast GPS) (PSI 1-4); higher = more stable; sorted into four equal gates, so the index is relative within each strain
Details: pdr5∆
Listing of entries alongside the reported protein stability index.
Give the figure by itself; no unit, no explanation.

sequence: SNSSSSPPIIDLFSNNN [MED1]
reported.value: 2.82
--
sequence: NKEGTLEQREQNENLPS [SSN2]
reported.value: 3.06
--
sequence: RLGSKKLVEIIWNDVVY [YJL039C/NUP192]
reported.value: 3.43
--
sequence: LEAKRKVSSAEYYAKKR [RPL16A]
reported.value: 3.3
--
sequence: KERYTVEDELTESIALS [RRI1]
reported.value: 3.29

Ask | Note down protein stability index recorded for SRHFASYANLPGTITHG [FAS1]
Reply | 2.82

Ask | Note down protein stability index recorded for SKLMPVLKSSVYEYVIA [RPC82]
Reply | 1.57

Ask | Note down protein stability index recorded for VYTLACRSCPYEFPIEG [RPC11]
Reply | 1.36

---

Assay: protein stability index of a GFP-peptide fusion (yeast GPS) (PSI 1-4); higher = more stable; sorted into four equal gates, so the index is relative within each strain
Settings: ubr1∆
Listing of entries alongside the reported protein stability index.
Give the figure by itself; no unit, no explanation.

# annotated cases, reported protein stability index shown
sequence: KHAEFDLSLLGYCDDIA [SIR2]
reported.value: 2.32
--
sequence: KSSFVKESAVISKQKSK [SMC1]
reported.value: 2.37
--
sequence: SIESKLEEHKNHLDELQ [SMC1]
reported.value: 3
--
sequence: HEVVQDDSFSLLRIQML [PCI8]
reported.value: 2.84
--
sequence: FSVRTKDSNKDVVVEGL [RPL10]
reported.value: 2.77
--
sequence: LKWIDTASKFGKGRFQT [RPL3]
reported.value: 3.09
--
sequence: HGLKQLRDSLADKIVDE [NUT2]
reported.value: 2.3
--
sequence: FNGAQLKAVTVEAGMIA [RPT5]
reported.value: 2.03

Ask | Note down protein stability index recorded for ENLPGLSISVAAEPMDS [SNU114]
Reply | 3.17

Ask | Note down protein stability index recorded for NDVTNKNINIGKHSQEQ [SIR4]
Reply | 2.5

---

Assay: protein stability index of a GFP-peptide fusion (yeast GPS) (PSI 1-4); higher = more stable; sorted into four equal gates, so the index is relative within each strain
Details: ubr1∆
Tick label 1 if protein stability index is 3 or greater. Tick label 0 if protein stability index is less than 3.

Field: example entries. Status: answers known.
sequence: KTAQTLDENLNSLSSNL [YJL041W/NSP1]
class.label: label 0
//
sequence: QKIMILQRTILNRIINH [RGR1]
class.label: label 0
//
sequence: LNLDEIVACELILSGDT [YJL039C/NUP192]
class.label: label 0

Ask | Hello, I need to know if GCENPADVFRRCLVAVI [SRP72] has measured protein stability index not below 3. Thanks!
Reply | label 0

Ask | Hello, I need to know if IERYPLKVTKKHGAKKV [RPL27A] has measured protein stability index not below 3. Thanks!
Reply | label 1

Ask | Hello, I need to know if SEDVSRDHEKDTYRTLM [YIL149C/MLP2] has measured protein stability index not below 3. Thanks!
Reply | label 1

Ask | Hello, I need to know if MGRVRTKTVKRASKALI [RPS17A] has measured protein stability index not below 3. Thanks!
Reply | label 0

---

Test: protein stability index of a GFP-peptide fusion (yeast GPS) (PSI 1-4); higher = more stable; sorted into four equal gates, so the index is relative within each strain
Conditions: san1∆
Tick criterion met if protein stability index is 3 or greater. Tick criterion not met if protein stability index is less than 3.

Field: example entries. Status: answers known.
sequence: NVGLCITIYDLLTVEEG [RPC25]
class.label: criterion not met

sequence: QPQQQLGDMENNLEKYP [RTT102]
class.label: criterion met

sequence: LIKNGKKVTAFVPNDGC [RPS23A]
class.label: criterion met

sequence: VWFSHPRRFGKGSRQCR [RPS29B]
class.label: criterion met

sequence: IRQYALATAHIYLSRFL [SSN8]
class.label: criterion not met

Ask | Hello, I need to know if SYSPTSPSYSPTSPNYS [RPO21] has measured protein stability index not below 3. Thanks!
Reply | criterion not met

Ask | Hello, I need to know if IEVTIGIDQYSFNVKEN [AAR2] has measured protein stability index not below 3. Thanks!
Reply | criterion not met

---

Listing of entries alongside the reported protein stability index.
Assay: protein stability index of a GFP-peptide fusion (yeast GPS) (PSI 1-4); higher = more stable; sorted into four equal gates, so the index is relative within each strain
Conditions: pdr5∆
Give the figure by itself; no unit, no explanation.

# annotated cases, reported protein stability index shown
sequence: RTPVPSTLMPGGVDVGP [SNF5]
protein stability index: 3
//
sequence: VSSRVRGYTCQFVDMVL [FAS1]
protein stability index: 1.94

Ask | Note down protein stability index recorded for LEEQQQLEDESSRLEFV [YML103C/NUP188]
Reply | 3.3

Ask | Note down protein stability index recorded for KKGEYARFKSKDERDTW [SMC3]
Reply | 3.23

Ask | Note down protein stability index recorded for MSIVFGDKFSEDFRIQF [UBP6]
Reply | 2.71

Ask | Note down protein stability index recorded for LALENGEITKTENEKFI [NUT1]
Reply | 3.45

Ask | Note down protein stability index recorded for APLKALVQEQVREFQRR [BRR2]
Reply | 1.24

---

Assay: protein stability index of a GFP-peptide fusion (yeast GPS) (PSI 1-4); higher = more stable; sorted into four equal gates, so the index is relative within each strain
Conditions: pdr5∆
Tick Criterion met if protein stability index is 3 or greater. Tick Criterion not met if protein stability index is less than 3.

Field: example entries. Status: answers known.
sequence: ELEGSFNKSAELSRIEN [YCS4]
class.label: Criterion met

sequence: TGATSLFGSSNNNNNNN [YGL172W/NUP49]
class.label: Criterion not met

sequence: KQQEQLEQQKQPTGLLK [YMR153W/NUP53]
class.label: Criterion met

Ask | Hello, I need to know if RVARRNAARKAEASGEA [RPS9A] has measured protein stability index not below 3. Thanks!
Reply | Criterion met

Ask | Hello, I need to know if LREFRITHNTNITDNLF [GRR1] has measured protein stability index not below 3. Thanks!
Reply | Criterion not met

Ask | Hello, I need to know if EGYGLRDVMCTDGVIGS [RPO31] has measured protein stability index not below 3. Thanks!
Reply | Criterion met

Ask | Hello, I need to know if CKNFEKTQLGSTMTEPV [GAL11] has measured protein stability index not below 3. Thanks!
Reply | Criterion not met

---

Listing of entries alongside the reported protein stability index.
Test: protein stability index of a GFP-peptide fusion (yeast GPS) (PSI 1-4); higher = more stable; sorted into four equal gates, so the index is relative within each strain
Details: pdr5∆
Give the figure by itself; no unit, no explanation.

# annotated cases, reported protein stability index shown
sequence: IVPGTYIQERNPSQRPQ [RPS10B]
protein stability index: 3.07
--
sequence: KNSRVELQKIYDRHQSS [SMC4]
protein stability index: 3.01
--
sequence: EGLDELPKIIQLQGPQW [SOH1]
protein stability index: 3.35
--
sequence: IAQSKKKNNKIKESSKK [SRP21]
protein stability index: 2.96
--
sequence: VYTAIYNYCVNKSRSSG [CDC53]
protein stability index: 2.62
--
sequence: DKHLYHVLYKESKGNAF [RPL19A]
protein stability index: 3.39
--
sequence: TTVQVAEEAIVNAMRVL [PRE4]
protein stability index: 2.72
--
sequence: PQRLQRKRHQRALKVRN [RPS6A]
protein stability index: 2.9

Ask | Note down protein stability index recorded for KQRKNPRRIAWTVLFRK [RPL24A]
Reply | 2.27

Ask | Note down protein stability index recorded for DKDNPVDSRNETDHKTN [SRB4]
Reply | 2.85

Ask | Note down protein stability index recorded for PVLKKKAAFLGSEVRLR [COR1]
Reply | 3.16

Ask | Note down protein stability index recorded for INTLNGGSSDTADKIRI [GAL11]
Reply | 2.02

Ask | Note down protein stability index recorded for GAFTIALAYAGTGNNSA [RPN2]
Reply | 2.32

Ask | Note down protein stability index recorded for LTGEAEIEQPVTTFVFT [FAS1]
Reply | 2.98

Ask | Note down protein stability index recorded for DIGSDPTLPRSDRECPK [RPB9]
Reply | 2.94
